test system: CB6F1-HRAS2 mice; conditions: mouse, in vivo
result.type: Tumor incidence and/or multiplicity

As a guide, the following entries are already answered.
{"molecule": "[O-][n+]1ccc(NO)c2ccccc21 [4HAQO, 4-Hydroxyaminoquinoline-1-oxide]", "study.target": "CB6F1-HRAS2 mice", "Tumor incidence and/or multiplicity": "Tg > non-Tg"}
{"molecule": "O=P1(N(CCCl)CCCl)NCCCO1 (stereo not shown) [Cyclophosphamide]", "study.target": "CB6F1-HRAS2 mice", "Tumor incidence and/or multiplicity": "Tg ÷ non-Tg"}
{"molecule": "S=C1NCCN1", "study.target": "CB6F1-HRAS2 mice", "Tumor incidence and/or multiplicity": "Tg ÷ non-Tg"}
{"molecule": "C=COC(N)=O [Vinyl carbamate]", "study.target": "CB6F1-HRAS2 mice", "Tumor incidence and/or multiplicity": "Tg > non-Tg"}
{"molecule": "O=[N+]([O-])c1cc[n+]([O-])c2ccccc12 [4NQO, 4-Nitroquinoline-1-oxide]", "study.target": "CB6F1-HRAS2 mice", "Tumor incidence and/or multiplicity": "Tg > non-Tg"}

Q: Tell me the measured Tumor incidence and/or multiplicity of CN(N=O)C(N)=O , please.
Result: Tg > non-Tg

Cited source for all entries: patent US20030237104A1
